tested on: HCT116 MTAP KO cells; experiment: Inhibitory activity against cell proliferation (CellTiter Glo, 6 days), HCT116 MTAP KO; format: cell-based; settings: ratio of IC50 HCT116-WT / HCT116 MTAP KO
Assignment: determine reported Selectivity HCT 116-WT/ HCT116 MTAP KO for the given molecules.
Number only, please.

Give the reported Selectivity HCT 116-WT/ HCT116 MTAP KO for Cc1cc2cc(C(=O)N(Cc3ccc(-c4cccnc4)cn3)N(C)c3ncccc3F)ccc2nc1N (system: HCT116 MTAP KO cells).
31.00

Give the reported Selectivity HCT 116-WT/ HCT116 MTAP KO for Cc1cc2cc(C(=O)N(Cc3ccc(-c4cncs4)cn3)N(c3ncccn3)C3CC3)ccc2nc1N (system: HCT116 MTAP KO cells).
25.07

Give the reported Selectivity HCT 116-WT/ HCT116 MTAP KO for Cc1cc2nc(N)c3cnn(C)c3c2cc1C(=O)N1CC(C)(F)CN1c1ncccc1F (centres unmarked) (system: HCT116 MTAP KO cells).
38.38

Give the reported Selectivity HCT 116-WT/ HCT116 MTAP KO for Cc1cc2nc(N)c3cnn(C)c3c2cc1C(=O)N1CC(C)CN1c1ncc(-c2nncs2)cc1F (centres unmarked) (system: HCT116 MTAP KO cells).
40.52

Give the reported Selectivity HCT 116-WT/ HCT116 MTAP KO for Cc1cc2cc(C(=O)N(Cc3ccc(C4CCOC4)cn3)N(C)c3ncccn3)ccc2nc1N (centres unmarked) (system: HCT116 MTAP KO cells).
42.11

Give the reported Selectivity HCT 116-WT/ HCT116 MTAP KO for COCc1ncsc1-c1ccc(CN(C(=O)c2ccc3nc(N)c(C)cc3c2)N(C)c2ncccn2)nc1 (system: HCT116 MTAP KO cells).
31.82

Give the reported Selectivity HCT 116-WT/ HCT116 MTAP KO for Cn1ncc2c(N)nc3cc(Cl)c(C(=O)N4CC5(CN4c4ncc(Cl)cc4F)CC(F)(F)C5)cc3c21 (system: HCT116 MTAP KO cells).
17.90

Give the reported Selectivity HCT 116-WT/ HCT116 MTAP KO for Cc1cc2nc(N)c3cnn(C)c3c2cc1C(=O)N1CC(C)CN1c1ncc(C#CCO)cc1F (centres unmarked) (system: HCT116 MTAP KO cells).
52.49
